- Tested on: Staphylococcus aureus Smith (MSSA)
- Procedure summary: Broth microdilution MIC, S. aureus Smith
- Assay type: cell-based
- Run conditions: Staphylococcus aureus Smith (MSSA); read-out: MIC S. a. Smith
MIC values, listed per item
Assay metric: MIC (µg/mL)

{"Molecule": "Nc1nc(C(=NO)C(=O)N[C@@H]2C(=O)N3C(C(=O)O)=C(Sc4cnns4)CSC23)c(Cl)s1 (some centres unmarked) [Compound 43]", "Unit tag": "µg/mL", "Assay value": 0.06}
{"Molecule": "Nc1nsc(SC2=C(C(=O)O)N3C(=O)[C@@H](NC(=O)C(=NO)c4nc(N)sc4Cl)C3SC2)n1 (some centres unmarked) [Compound 47]", "Unit tag": "µg/mL", "Assay value": 0.25}
{"Molecule": "C=CCO/N=C(\\C(=O)N[C@@H]1C(=O)N2C(C(=O)O)=C(Sc3ccnn3-c3ccccc3)CS[C@H]12)c1csc(N)n1 [Compound 20]", "Unit tag": "µg/mL", "Assay value": 0.5}
{"Molecule": "Nc1nc(C(=NO)C(=O)N[C@@H]2C(=O)N3C(C(=O)O)=C(Sc4cnns4)CSC23)ns1 (some centres unmarked) [Compound 39]", "Unit tag": "µg/mL", "Assay value": 0.125}
{"Molecule": "Nc1nc(C(=NO)C(=O)N[C@@H]2C(=O)N3C(C(=O)O)=C(Sc4nnc[nH]4)CSC23)c(Cl)s1 (some centres unmarked) [Compound 40]", "Unit tag": "µg/mL", "Assay value": 0.5}
